assay.system: T1, interleukin 18 binding protein (IL-18BP) (UniProt O95998 31-194)
T1 sequence (looked up): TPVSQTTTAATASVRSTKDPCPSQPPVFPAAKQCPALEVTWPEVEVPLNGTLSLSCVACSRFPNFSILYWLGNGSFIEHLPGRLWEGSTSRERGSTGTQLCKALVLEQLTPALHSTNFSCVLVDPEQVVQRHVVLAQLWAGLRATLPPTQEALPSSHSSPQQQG
method.description: cell-based or functional assay
Ratio (HEK-blue EC50, + 100 nM BP against - BP) values, listed per item
Number only, no unit.

binder	observed
IL-18 variant G3Q, E6N (ligand) YFQKLNSKLSVIRNLNDQVLFIDQGNRPLFEDMTDSDMRDNAPRTIFIISMYKDSQPRGMAVTISVKSEKISTLSSENKIISFKEMNPPDNIKDTKSDIIFFQRSVPGHDNKMQFESSSYEGYFLASEKERDLFKLILKKEDELGDRSIMFTVQNED	172

Lookup result for IL-18 variant G3D, E6Q, R27S, K53R, D54A, S55R, T63S, N91Q (ligand) YFDKLQSKLSVIRNLNDQVLFIDQGNSPLFEDMTDSDMRDNAPRTIFIISMYRARQPRGMAVSISVKSEKISTLSSENKIISFKEMNPPDQIKDTKSDIIFFQRSVPGHDNKMQFESSSYEGYFLASEKERDLFKLILKKEDELGDRSIMFTVQNED ; measured Ratio (HEK-blue EC50, + 100 nM BP against - BP): 6.1

Lookup result for IL-18 variant G3S, E6G, D54V, S55K, T63S, N91Y, R104T (ligand) YFSKLGSKLSVIRNLNDQVLFIDQGNRPLFEDMTDSDMRDNAPRTIFIISMYKVKQPRGMAVSISVKSEKISTLSSENKIISFKEMNPPDYIKDTKSDIIFFQTSVPGHDNKMQFESSSYEGYFLASEKERDLFKLILKKEDELGDRSIMFTVQNED ; measured Ratio (HEK-blue EC50, + 100 nM BP against - BP): 23.2
